assay: qHTS for Inhibitors of TGF-b: Cytotox Counterscreen for Cherry Picks; conditions: HepG2 CAGA-GFP viability, ATP luminescence, 18 h, cells stimulated with TGF-beta, 500 pg/mL; series mostly up to 46.1 µM; also: nearly all actives have a fitted effect of over 70% in size
Screen size: about 1,600 compounds; about 420 (26%) were called active. About 40% were inconclusive and are not listed. Calls follow the shape of the dose curve; as a rule, active = well fitted inhibition curve with a large enough effect; inconclusive = small, poorly fitted or top-dose-only effect; inactive = flat fitted curve, though single readings scatter. This is one part of a sample in which actives are shown more often than they occur.
Outcomes: TRUE (active), FALSE (inactive)

INSERT INTO assay_data (compound, assignedclass) VALUES
  ('COC(=O)COc1cccc2c(=O)n(CC(=O)NCc3ccccc3)ccc12', 'FALSE'),
  ('Cc1cc(C)cc(N(CC(=O)N2CC=C(c3ccccc3)CC2)S(=O)(=O)c2c(C)noc2C)c1', 'FALSE'),
  ('O=C(Nc1nnc(S(=O)(=O)N2CCCCCC2)s1)c1cccc(Br)c1', 'TRUE'),
  ('COc1ccc(CC(=O)Nc2ccccc2NC(=O)c2ccco2)cc1OC', 'FALSE'),
  ('Cc1ccc(S(=O)(=O)Nc2nc3ccccc3nc2N2CCc3ccccc3C2)cc1', 'FALSE'),
  ('Cc1cccc(CS(=O)(=O)c2ncc(Cl)c(C(=O)Nc3ccc(F)cc3)n2)c1', 'TRUE'),
  ('COc1cc(NC(=O)c2[nH]cnc2C(N)=O)cc(C(=O)Nc2cccc(C(F)(F)F)c2)c1', 'TRUE'),
  ('O=c1[nH]c(CCl)nc2cc(-c3ccc(Cl)cc3)sc12', 'TRUE'),
  ('O=C(/C(=C/c1cccc(Cl)c1)c1nc2ccccc2[nH]1)c1ccccc1', 'TRUE'),
  ('CN(C)CCNC(=O)c1ccc(Cl)c2cc3ccccc3nc12', 'TRUE'),
  ('CN(c1ccccc1)S(=O)(=O)c1ccc(C(=O)N2CCN(c3ccccc3Cl)CC2)cc1', 'FALSE'),
  ('Cn1c(=O)n(C)c2cc(S(=O)(=O)N3CCCc4ccccc43)ccc21', 'FALSE'),
  ('CC[C@H]1CN2CCc3cc(OC)c(OC)cc3[C@@H]2C[C@@H]1C[C@H]1NCCc2cc(OC)c(OC)cc21', 'TRUE'),
  ('Clc1ccc2c(c1)C1=C(C(c3ccncc3)O2)C(c2ccc(Br)cc2)n2ncnc2N1 (stereo not given)', 'FALSE'),
  ('COc1ccc2nc(N3CCN(C(=O)c4ccc([N+](=O)[O-])o4)CC3)sc2c1', 'TRUE');
